Where do the numbers come from? From ChEMBL document CHEMBL1681657.

// reported pKi for each item listed
Experiment: Inhibition of trypsin
pKi: −log10 of the molar value.

> print(dat)
                                 cpd.smiles  experimental.result
1  Cc1ccc(Cl)cc1CNC(=O)Cn1c(Cl)cnc(NCCc2cccc[n+]2[O-])c1=O                 4.03
2  Cc1ccc(Cl)cc1CNC(=O)Cn1c(C)cnc(NCCc2ccccn2)c1=O               < 4.30

Please look up its pKi: COc1ccc(C#N)c(CNC(=O)Cn2c(C)cnc(NCCc3ccccn3)c2=O)c1
< 3.00
